Conditions: [M+H]+; instrument: DT; single field, calibrated with ESI Low Concentration Tuning Mix (Agilent)
Measured collision cross section (N2) values are reported for all entries that follow.
Please reply with the bare figure in Å² and do not write the unit itself.

compound=NC(=O)[C@@H]1CCCN1C(=O)[C@H](Cc1cnc[nH]1)NC(=O)[C@@H]1CCC(=O)N1 measured_parameter="collision cross section (N2)" measurement_units=Å² readout_value=179.2
compound="O=P(O)(O)OC1C(OP(=O)(O)O)C(OP(=O)(O)O)C(OP(=O)(O)O)C(OP(=O)(O)O)C1OP(=O)(O)O (centres undefined) [PHYTATE]" measured_parameter="collision cross section (N2)" measurement_units=Å² readout_value=215.8
compound="CC(C)(CO)[C@@H](O)C(=O)NCCC(=O)O [PANTOTHENATE]" measured_parameter="collision cross section (N2)" measurement_units=Å² readout_value=129.9

The record that follows has no collision cross section (N2) shown yet.
For the compound `C[N+](C)(C)C[C@H](O)CC(=O)[O-]` , what collision cross section (N2) is on record?
132.9

---

Settings: [M+H]+; instrument: TW; calibrated with polyalanine and drug standards
collision cross section (N2) less than 200 Å² is MET; collision cross section (N2) greater than or equal to 200 Å² is NOT MET.

Solved entries (count: 5):
molecule=CC(C)(O)CC[C@@H](O)[C@](C)(O)[C@H]1CC[C@@]2(O)C3=CC(=O)[C@@H]4C[C@@H](O)[C@@H](O)C[C@]4(C)[C@H]3CC[C@]12C classification="NOT MET"
molecule=COc1ccc(-c2cc(=O)c3c(OC)c(OC)c(OC)c(OC)c3o2)cc1 classification=MET
molecule=COc1ccc2c(c1)[nH]c1c(C)nccc12 classification=MET
molecule=CN1C(C(=O)Nc2ccccn2)=C(O)c2sccc2S1(=O)=O classification=MET
molecule=O=c1cc(-c2ccccc2)oc2cc(O)c(O)c(O)c12 classification=MET

Hi there! Is collision cross section (N2) for CCN1CCCC1CNC(=O)c1cc(S(N)(=O)=O)ccc1OC (stereo not given) [SULPIRIDE] below 200 Å², do you know?
MET

Hi there! Is collision cross section (N2) for `CC(=O)NCCc1ccc(O)c(-c2c(O)c(O)c3c(c2O)C(=O)c2c(cc(O)c(C(=O)O)c2C(=O)O)C3=O)c1` below 200 Å², do you know?
NOT MET

Hi there! Is collision cross section (N2) for `CCN1C[C@]2(OC(=O)c3ccccc3NC(C)=O)CC[C@H](OC)C34C1C(C[C@@H]32)[C@@]1(O)C[C@H](OC)[C@H]2C[C@@H]4[C@]1(O)[C@H]2OC` below 200 Å², do you know?
NOT MET

Hi there! Is collision cross section (N2) for COc1ccc(-c2cc(=O)c3c(OC(C)=O)cc(OC(C)=O)cc3o2)cc1 [ACACETIN DIACETATE] below 200 Å², do you know?
MET

Hi there! Is collision cross section (N2) for O=C(/C=C/c1ccc(O)cc1)c1ccccc1O [2',4-DIHYDROXYCHALCONE] below 200 Å², do you know?
MET

Hi there! Is collision cross section (N2) for c1ccc(C2CN3CCSC3=N2)cc1 (stereo not given) below 200 Å², do you know?
MET

---

Measured collision cross section (N2) values are reported for all entries that follow.
Settings: [M+H]+; instrument: TW; Major Mix IMS/Tof Calibration Kit (Waters)
Please reply with the bare figure in Å² and do not write the unit itself.

compound="CCOC(=O)[C@H](CCc1ccccc1)N[C@@H](C)C(=O)N1[C@H](C(=O)O)C[C@@H]2CCC[C@@H]21 [Ramipril]" measured_parameter="collision cross section (N2)" readout_value=197
compound="O=C1C[N+]([O-])=C(c2ccccc2)c2cc(Cl)ccc2N1 [Demoxepam]" measured_parameter="collision cross section (N2)" readout_value=161.7
compound="COC(=O)C(c1ccccc1)C1CCCCN1 (centres undefined) [Methylphenidate]" measured_parameter="collision cross section (N2)" readout_value=154.2
compound="COc1ccc2c3c1O[C@H]1[C@@H](O)C=C[C@H]4[C@@H](C2)N(C)CC[C@@]341 [Codeine]" measured_parameter="collision cross section (N2)" readout_value=168.2
compound="CNC1(c2ccccc2Cl)CCCCC1=O (centres undefined) [Ketamine]" measured_parameter="collision cross section (N2)" readout_value=149.2

The record that follows has no collision cross section (N2) shown yet.
For the compound Cc1ccsc1C(=CCCN1CCC[C@@H](C(=O)O)C1)c1sccc1C [Tiagabine] , what collision cross section (N2) is on record?
184.5

Data origin, for the record: the C3SDB collision cross section collection
